The origin of these recorded values is PubChem BioAssay AID1159580.

# key: entry, value: normalized growth
assay: chemical genetic growth profiling, strain panel (AID 1159580);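 further: tested at 20 µM; growth read once vehicle control cultures reached saturation at 30 °C; 1 = growth at the plate median or of vehicle wells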; conditions: S. cerevisiae deletion strains, growth OD, locus YER167W, strain BCK2, stronger effect = lower value
Hit rate of the full screen: of about 5,500 compounds, about 2,000 (36%) were called active. Another 18% or so got no clear call; they are omitted. This is one part of the list.

Example cases with answers are listed next.
O=c1[nH]c(=O)n(C2C[C@H](O)[C@@H](CO)O2)cc1C(F)(F)F (some centres not stated)	0.945 (inactive)
NC(=O)NC1NC(=O)NC1=O (configuration not stated)	1 (inactive)
COc1ccc(-c2cc(=O)c3c(OC)cc(OC)cc3o2)cc1	0.989 (inactive)

Field request: normalized growth | item: `CN(C)C(=O)Oc1ccc[n+](C)c1` 1.02 (inactive)

Requested field: normalized growth. Item: `O=c1oc2ccccc2cc1O` 1.03 (inactive)

Requested field: normalized growth. Item: `COc1cc(C)c2c(=O)cc(-c3ccccc3)oc2c1` 0.994 (inactive)

May I ask what normalized growth has been recorded for `NC(N)=NCCCCN=C(N)N` ? 1.01 (inactive)

---

experiment: chemical genetic growth profiling, strain panel (AID 1159580); settings: S. cerevisiae deletion strains, growth OD, locus YML032C, strain rad52, stronger effect = lower value
Among all 5,500 compounds or so, about 2,000 (36%) were called active. Not shown: some 18% with an inconclusive outcome. The list shows a part of the results.
Please use 1 for normalized growth under 1 and 0 for everything else, ties included.

CN=C(N)NCCCC(N)C(=O)O (centres undefined)	0
COc1ccc(CCC(=O)c2c(O)cc(O[C@@H]3O[C@H](CO)C(O)[C@H](O)C3O[C@@H]3O[C@@H](C)[C@H](O)[C@@H](O)[C@H]3O)cc2O)cc1O (some centres undefined)	1

Moving on to the next molecule.
Say whether its normalized growth is strictly beneath 1. Entry: CC(=O)OCC(=O)[C@@]1(O)CCC2C3CCC4=CC(=O)C=CC4(C)C3[C@@H](O)C[C@@]21C (some centres undefined) 0

---

test: chemical genetic growth profiling, strain panel (AID 1159580); details: S. cerevisiae deletion strains, growth OD, locus YBR171W, strain sec66, stronger effect = lower value
The whole screen tested about 5,500 compounds, of which about 2,000 (36%) were called active. Inconclusive results (about 18%) are left out. This is one part of the list.
MEASURE NAME: normalized growth
API doc: respond with a numeric literal and nothing else, no unit.

Solved cases below.
CC(=O)Oc1c2c(c(CC=C(C)C)c3c1C(=O)C1=C[C@@H]4CC5C(C)(C)OC(C/C=C(\C)C(=O)O)(C4=O)[C@@]15O3)OC(C)(CCC=C(C)C)C=C2 (some centres undefined)	0.989
COP(=S)(OC)Oc1ccc([N+](=O)[O-])cc1	0.994
COC(=O)/C(C)=C\CC12OC(C)(C)C3CC(C=C4C(=O)c5c(OC)c6c(c(CC=C(C)C)c5OC431)OC(C)(CCC=C(C)C)C=C6)C2=O (centres undefined)	1.03

Now for a further compound.
Which value of normalized growth has been reported for CCC(C)C(=O)c1c(O)c(C)c2oc3c(C)c(O)c(C(=O)C(C)CC)c(O)c3c2c1O (centres undefined) in the records? 0.995

---

Below, each entry is listed with its recorded normalized growth.
experiment: chemical genetic growth profiling, strain panel (AID 1159580); settings: S. cerevisiae deletion strains, growth OD, locus YPR167C, strain met16, stronger effect = lower value
In all, about 5,500 compounds went through this assay and about 2,000 (36%) were called active. Inconclusive results (about 18%) are left out. The list shows a part of the results.
// no unit string in output, number only

Before answering, review these 5 worked examples.
CCCn1c(=O)c2[nH]c(C3CCCC3)nc2n(CCC)c1=O	0.982
CC(=O)N[C@@H](CCC(=O)O)C(=O)O	1
O=C1CCCCC/C=C/CCCCCCCCO1	1
COC(=O)[C@@H]1OC(=O)C2OC23[C@@]1(C)CCC1[C@@]2(C)CCC(=O)C(C)(C)C2C[C@@H](OC(C)=O)[C@]13C (some centres not stated)	1.01
Cc1nnc(NS(=O)(=O)c2ccc(N)cc2)s1	0.997

May I ask what normalized growth has been recorded for `NCCCC(=O)O` ? 1.02

I have this molecule here, C=NC(C(=O)NC1C(=O)N2C1SC(C)(C)C2C(=O)O)c1ccccc1 (configuration not stated) , and I need its recorded normalized growth. 1.02

---

assay: chemical genetic growth profiling, strain panel (AID 1159580);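 further: tested at 20 µM; growth read once vehicle control cultures reached saturation at 30 °C; 1 = growth at the plate median or of vehicle wells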; conditions: S. cerevisiae deletion strains, growth OD, locus YJL128C, strain PBS2, stronger effect = lower value
Hit rate of the full screen: of about 5,500 compounds, about 2,000 (36%) were called active. About 18% were inconclusive and are not listed. The list shows a part of the results.
The entries below come with measured normalized growth values attached.
Respond numerically, and do not add a unit to the figure.

Field: example entries. Status: answers known.
CC1C(c2ccccc2)N(C)C(c2ccccc2)CC1(O)c1ccc(F)cc1 (stereo unspecified)	0.952
O=S(=O)(NCc1cc(Cl)cc(Cl)c1)c1cc(C(F)(F)F)cc(C(F)(F)F)c1	0.923
Cn1nccc1-c1cc(Cl)cc(Cl)c1O	0.917

normalized growth lookup needed for `Clc1ccc(Oc2ccnc3cc(Cl)ccc23)cc1` , thanks. 0.865

Reported normalized growth, molecule `O=C(Oc1ccc2ccccc2c1C1SCCS1)c1ccc([N+](=O)[O-])o1` : ____ 0.842

I'd like to know its normalized growth. The molecule in question is `C/C(=N/NC(=S)NCC(C)(C)C)c1cc(F)cc(Cl)c1O` 0.952

# get_value(readout='normalized growth', item= `COc1ccc2c(c1)CCc1sc(NC(=O)c3ccco3)nc1-2` ) 0.934

Returns the measured normalized growth for the input molecule. Input: `N/C(=N/O)c1ccc(Oc2ccc(C3SCCS3)cc2)c([N+](=O)[O-])c1` 0.93

Would you mind telling me what normalized growth value was observed for `O=S(=O)(Nc1csc(C(F)(F)F)c1-c1ccccc1)c1cc(Br)c(Br)s1` ? 0.956

State the recorded normalized growth for this entry: `N#CC(C#N)=Cc1c(-c2ccccc2Cl)[nH]c2ccccc12` 0.958

Return reported normalized growth; argument: `N#Cc1cccc(CSc2nc3ccc(C(F)(F)F)cc3[nH]2)c1` 0.909

---

test: chemical genetic growth profiling, strain panel (AID 1159580);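 further: tested at 20 µM; growth read once vehicle control cultures reached saturation at 30 °C; 1 = growth at the plate median or of vehicle wells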; details: S. cerevisiae deletion strains, growth OD, locus YHR082C, strain KSP1, stronger effect = lower value
About 2,000 (36%) of roughly 5,500 compounds were called active. Another 18% or so got no clear call; they are omitted. This is one part of the list.
Overview of recorded normalized growth for various compounds
# output: bare number, no unit

Some compounds with recorded normalized growth:
Clc1cccc(Nc2ncc(-c3ccc4c(c3)OCCCO4)s2)c1	0.951
O=S(=O)(NCc1ccc(C(F)(F)F)cc1)c1cccc(C(F)(F)F)c1	1.04

Which normalized growth value is on record for CC(C)(C)C1=C(C#N)C(c2c(Cl)cccc2Cl)C(C#N)=C(N)O1 (stereo not given) ? 1.09

Need normalized growth, item `Cc1noc(C)c1S(=O)(=O)Nc1csc(C(F)(F)F)c1-c1ccccc1` 1.08

---

test: chemical genetic growth profiling, strain panel (AID 1159580);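 further: tested at 20 µM; growth read once vehicle control cultures reached saturation at 30 °C; 1 = growth at the plate median or of vehicle wells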; details: S. cerevisiae deletion strains, growth OD, locus YLL026W
About 2,000 (36%) of roughly 5,500 compounds were called active. Another 18% or so got no clear call; they are omitted. No stated cut-off is given here; in the data, active means normalized growth mostly below about 0.91 (no sharp cut-off); inconclusive means no clear call, values can overlap the other calls; inactive means mostly above about 0.92. Some of the results follow.
Output constraint: value belongs to 1.0 = active, 0.0 = inactive

Before answering, review these 2 worked examples.
CC(C)c1nc(N(C)S(C)(=O)=O)nc(-c2ccc(F)cc2)c1/C=C/[C@@H](O)C[C@@H](O)CC(=O)O	0.0
COc1cc2c(cc1OC)C1(O)C(=O)c3ccc(O)c(C(=O)O)c3OC1CO2 (stereo unspecified)	0.0

Hello, I am checking results. What call was entered for `O=NN(CCCl)C(=O)NCCCl` ? 0.0

Would you mind telling me which call this test gave CC(=O)Oc1c2c(c(CC=C(C)C)c3c1C(=O)C1=C[C@@H]4CC5C(C)(C)OC(C/C=C(\C)C(=O)O)(C4=O)[C@@]15O3)OC(C)(CCC=C(C)C)C=C2 (stereo partly specified) ? 0.0

Test call, this molecule: `NCCCCC(=O)O` 0.0

Hello, I am checking results. What call was entered for C=C[C@@]1(C)CC(=O)[C@@]2(O)[C@](C)(O1)[C@@H](OC(C)=O)[C@@H](O)C1C(C)(C)CC[C@H](O)[C@@]12C (stereo partly specified) ? 0.0

What did the test return for O=C(O)CCC1NCC2CC1CN1CCCCC21 (stereo unspecified) ? 0.0

What did this assay record as the result for `O=C(O)[C@@H](S)[C@@H](S)C(=O)O` ? 0.0

Given NC(C(=O)O)C(O)C(=O)O (stereo unspecified) , state the outcome it received in this test. 0.0

Recorded test outcome, item `NCCCCCC(=O)O` 0.0

Give the logged outcome of this assay for the following molecule: `COc1c(C)c2c(c(O)c1C/C=C(\C)CCC(=O)O)C(=O)OC2` 1.0

Identify the outcome logged in this assay for the molecule shown: Clc1ccc(C(Cn2ccnc2)OCc2ccsc2Cl)c(Cl)c1 (stereo unspecified) 1.0

What did the test return for CC(=O)Oc1c2c(c3c(c1CC=C(C)C)O[C@]14C(=C[C@@H]5CC1C(C)(C)OC4(C/C=C(\C)C(=O)O)C5=O)C3=O)OC(C)(CCC=C(C)C)C=C2 (stereo partly specified) ? 0.0

# fetch the recorded call for `Clc1ccc(CO/N=C(/Cn2ccnc2)c2ccc(Cl)cc2Cl)c(Cl)c1` here 1.0

Any idea what this test logged for `FC(F)(F)c1cccc(N2CCNCC2)c1` ? 0.0

Can you look up the reported call for CCC(C)C(=O)c1c(O)c(C)c2oc3c(C)c(O)c(C(=O)C(C)CC)c(O)c3c2c1O (stereo unspecified) for me? 0.0

What outcome does the record of this test show for CC1CCC(NC(=O)N(CCCl)N=O)CC1 (stereo unspecified) ? 1.0

Please share the test call associated with O=C(O)C(O)C(O)C(=O)O (stereo unspecified) . 0.0

Recorded call for COC(=O)/C(C)=C\CC12OC(C)(C)C3CC(C=C4C(=O)c5c(OC)c6c(c(CC=C(C)C)c5OC431)OC(C)(CCC=C(C)C)C=C6)C2=O (stereo unspecified) ? 0.0

Which result was noted for this molecule in the test: `NC1(C(=O)O)CC1` 0.0

Test call, this molecule: CCN1C[C@@]2(COC)C3[C@@H](OC)[C@H]4[C@@H]1[C@]3(C(OC)C[C@H]2O)C1C[C@@]2(O)[C@H](OC(=O)c3ccccc3)C1[C@]4(OC(C)=O)[C@@H](O)[C@@H]2OC (stereo partly specified) 0.0
